Catalogue of absorption maximum values
Test: solvent given as SMILES
Details: in Cc1ccccc1
Give a bare numeral; the unit nm is implied.

>  <compound>
CC(=O)c1c2c(cc3ccc(N(C)C)cc13)CCC2

>  <absorption maximum (nm)>
376

$$$$
>  <compound>
CCCCCCc1ccc2c(/C=N/c3cc(/N=C/c4c(O)ccc5cc(CCCCCC)ccc45)cc(/N=C/c4c(O)ccc5cc(CCCCCC)ccc45)c3)c(O)ccc2c1

>  <absorption maximum (nm)>
480

$$$$
>  <compound>
CCCCCCCCCCCCOc1cc(/C=C/c2ccc3c(c2)C(CC)(CC)c2cc(N4c5ccccc5Sc5ccccc54)ccc2-3)c(OCCCCCCCCCCCC)cc1/C=C/c1ccc2c(c1)C(CC)(CC)c1cc(N3c4ccccc4Sc4ccccc43)ccc1-2

>  <absorption maximum (nm)>
442.93

$$$$
>  <compound>
c1ccc2c(c1)c1ccccc1n2-c1cc(-c2nc3ccccn3n2)cc(-n2c3ccccc3c3ccccc32)c1

>  <absorption maximum (nm)>
338

$$$$
>  <compound>
CCCCCCC(CCCCCC)N1C(=O)c2cccc3c(-c4ccc(OC)cc4)ccc(c23)C1=O

>  <absorption maximum (nm)>
364.2

$$$$
>  <compound>
COc1cccc2cc(-c3cc4cccc(OC)c4oc3=O)oc12

>  <absorption maximum (nm)>
358

$$$$
>  <compound>
COc1ccc(/N=N/c2c(O)c3ccccc3n(C)c2=O)c(S(=O)(=O)O)c1

>  <absorption maximum (nm)>
449

$$$$
>  <compound>
c1ccc(-c2nc(-c3ccccc3)nc(-c3ccc(-n4c5ccccc5c5cc6c(cc54)C4c5ccccc5C6c5ccccc54)cc3)n2)cc1

>  <absorption maximum (nm)>
373

$$$$
>  <compound>
CC(C)(C)c1c2ccc3[nH]c4c(ccc5c(C(C)(C)C)c(ccc6[nH]c7c(ccc1c7n2)c6C(C)(C)C)nc54)c3C(C)(C)C

>  <absorption maximum (nm)>
764

$$$$
>  <compound>
CCC1=[N+]2c3c(c4ccc(Oc5c(C)cc(C)cc5C)c5cc6c(Oc7c(C)cc(C)cc7C)ccc7c8cc(CC)n(c8c3c(c54)c67)[B-]2(F)F)=C1

>  <absorption maximum (nm)>
867

$$$$

response.value for c1ccc(-c2nc(-c3ccccc3)nc(-c3ccc(-n4c5ccccc5c5cc6c7ccccc7n7c8ccccc8c(c54)c67)cc3)n2)cc1 (field: absorption maximum) = 383

Record N#Cc1nc2c3ccc(-c4ccc(-n5c6ccccc6c6ccccc65)cc4)cc3c3cc(-c4ccc(-n5c6ccccc6c6ccccc65)cc4)ccc3c2nc1C#N . Reported absorption maximum: 418

Reported absorption maximum ( Cc1cc(C)c(B(c2ccccc2N2c3ccccc3Oc3ccccc32)c2c(C)cc(C)cc2C)c(C)c1 ) = 445

Kindly note the recorded absorption maximum for O=[N+]([O-])c1ccc([N+]2=Cc3ccc4c5c(ccc4c3O[B-]2(c2ccccc2)c2ccccc2)C=[N+](c2ccc([N+](=O)[O-])cc2)[B-](c2ccccc2)(c2ccccc2)O5)cc1 , which is 536
